Biological target: CHIP (Homo sapiens)
Construct: N-term truncated CHIP (also known as STUB1, Uniprot ID: Q9UNE7, residues 23-303); made in house; host or cells: E. coli BL21 CodonPlus
Sequence (Q9UNE7 23-303): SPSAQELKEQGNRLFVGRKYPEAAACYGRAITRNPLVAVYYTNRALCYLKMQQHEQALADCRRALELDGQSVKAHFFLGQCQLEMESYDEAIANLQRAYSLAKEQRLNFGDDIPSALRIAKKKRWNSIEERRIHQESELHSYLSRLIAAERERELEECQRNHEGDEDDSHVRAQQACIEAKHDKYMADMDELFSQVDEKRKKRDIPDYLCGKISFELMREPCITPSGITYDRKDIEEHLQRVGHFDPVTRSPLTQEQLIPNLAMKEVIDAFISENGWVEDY
Experiment: Naive Library Presenter Screening (phage, NGS), CHIP
Type: binding
Conditions: CHIP target concentration 1000 nM, first column
Description: To conduct phage library screening, previously described procedures were utilized in accordance with the present disclosure. Next-generation sequencing was performed as described in accordance with the present disclosure. Hit ID and Clustering is performed according to a described procedure in accordance with the present disclosure.
Numbered stars: 1 amine (or outer) side, 2 acyl side, 3 side chain; on linkers, the order of the positions; unused ones are H or OH. Bridge positions count the residues as written; N and C are the ends. Ends that are not written are not given here. Phenylene(1,4-NHCOCH2)2 = O=C(C[*:1])Nc1ccc(NC(=O)C[*:2])cc1
Would you mind labelling by interaction data at Target Concentration 1000? At or over 20 is t, under is f.

# seq_string, classification
measured = [
    ("ICYNAWFECE (linker 2-9 via Phenylene(1,4-NHCOCH2)2 (inferred))", "f"),
    ("PCWEAWLWCSM (linker 2-9 via Phenylene(1,4-NHCOCH2)2 (inferred))", "t"),
    ("PCWNAWLYCSN (linker 2-9 via Phenylene(1,4-NHCOCH2)2 (inferred))", "t"),
    ("PCWNAWMVCSV (linker 2-9 via Phenylene(1,4-NHCOCH2)2 (inferred))", "t"),
    ("ICYNAWVECE (linker 2-9 via Phenylene(1,4-NHCOCH2)2 (inferred))", "f"),
    ("ICWAAWVSCS (linker 2-9 via Phenylene(1,4-NHCOCH2)2 (inferred))", "t"),
    ("ICYNAWLECA (linker 2-9 via Phenylene(1,4-NHCOCH2)2 (inferred))", "f"),
    ("PMCSDAWLFCE (linker 3-10 via Phenylene(1,4-NHCOCH2)2 (inferred))", "t"),
    ("PCYSAWITCES (linker 2-9 via Phenylene(1,4-NHCOCH2)2 (inferred))", "t"),
    ("PCFEAWVMCEI (linker 2-9 via Phenylene(1,4-NHCOCH2)2 (inferred))", "t"),
    ("PCWSAWLACEL (linker 2-9 via Phenylene(1,4-NHCOCH2)2 (inferred))", "t"),
    ("PCWDAWMLCTD (linker 2-9 via Phenylene(1,4-NHCOCH2)2 (inferred))", "t"),
    ("ICYSAWLECE (linker 2-9 via Phenylene(1,4-NHCOCH2)2 (inferred))", "t"),
    ("ICYNARLECE (linker 2-9 via Phenylene(1,4-NHCOCH2)2 (inferred))", "t"),
    ("PCYSAWIVCSD (linker 2-9 via Phenylene(1,4-NHCOCH2)2 (inferred))", "t"),
    ("ICYTAWLECE (linker 2-9 via Phenylene(1,4-NHCOCH2)2 (inferred))", "f"),
]
